These measurements were taken from paper PMC8189816.

Target: human thioredoxin reductase 1 (TrxR1) U498C mutant (human) (UniProt Q16881)
Test: differential scanning fluorimetry; 10 uM hTrxR (U498C), hTrx1 0 to 100 uM, Sypro Orange 1:500, 50 mM Tris, 1 mM EDTA, pH 7.4; Tm of the first denaturation step of TrxR plotted against log [Trx] (Hill plot), EC50 converted to Kd
measure_name: Kd (µM)

Reference set, count: 2
binder	Kd [µM]
human thioredoxin 1 (Trx1), wild-type (natural protein) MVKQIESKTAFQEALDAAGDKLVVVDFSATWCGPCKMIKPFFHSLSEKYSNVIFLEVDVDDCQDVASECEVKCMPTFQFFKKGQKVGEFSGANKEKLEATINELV	13.6
human Trx1 C32,35S (redox-inactive active site double mutant) (natural protein, UniProt P10599 1-105, looked up, human cytosolic thioredoxin 1, both active site cysteinyl residues exchanged for seryl residues; also called hTrx1C32,35S; double cysteinyl mutant) MVKQIESKTAFQEALDAAGDKLVVVDFSATWSGPSKMIKPFFHSLSEKYSNVIFLEVDVDDCQDVASECEVKCMPTFQFFKKGQKVGEFSGANKEKLEATINELV	9.8

P = human Trx1 K39E (natural protein) MVKQIESKTAFQEALDAAGDKLVVVDFSATWCGPCKMIEPFFHSLSEKYSNVIFLEVDVDDCQDVASECEVKCMPTFQFFKKGQKVGEFSGANKEKLEATINELV
Q = human Trx1 K36E (natural protein) MVKQIESKTAFQEALDAAGDKLVVVDFSATWCGPCEMIKPFFHSLSEKYSNVIFLEVDVDDCQDVASECEVKCMPTFQFFKKGQKVGEFSGANKEKLEATINELV
Query: Which value of Kd is greater, the one for P or the one for Q ? Please identify the chosen entry by its label.
Response: P
(P: 9.68 µM, Q: 5.28 µM)
